TGT: T1, recombinant human FGFR3c Fc fusion (human, UniProt P22607 141-372)
T1 construct: also called FGFR3IIIc; not shown: Fc part of the FGFR-Fc fusion
T1 sequence: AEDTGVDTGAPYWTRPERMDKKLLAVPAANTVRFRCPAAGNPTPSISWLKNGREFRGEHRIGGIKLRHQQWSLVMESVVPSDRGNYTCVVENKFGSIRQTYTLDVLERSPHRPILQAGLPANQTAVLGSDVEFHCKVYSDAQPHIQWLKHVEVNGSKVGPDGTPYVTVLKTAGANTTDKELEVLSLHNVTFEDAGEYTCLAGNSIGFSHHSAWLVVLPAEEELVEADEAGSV
RUN_DESCRIPTION: solid phase ELISA on coated FGFR-Fc
QUANTITY: pEC50
Please report pEC50 as the negative decimal logarithm of the molar concentration, giving only the number.

query: Give pEC50 for the following binder: Ab60 (antibody, human IgG2, kappa, V domains shown, format in the assays not spelled out) VH: EVQLLESGGGVVQPGRSLRLSCAASGFDFAGYAMHWVRQAPGKGLEWVAVISYDGSNKYYADSVKGRFTISRDNSKNTLSLQMNSLRVEDTAIYYCVRGAGRGLTYGPDGFDIWGQGTMVTVSS VL: DIVMTQTPLSLSVTPGQPASISCTSSRSLLHSDGKTYVYWYVQKSGQPPQLLIYELSNRFSGVPDRFSGSGSRTDFTLKISRVEAEDVGVYYCMQYIEAPLTFGGGTKVEIKR
result: 10.16
